Reference source: patent US20210261605A1

assay.target: IgG1 (product of Sigma-Aldrich)
assay.notes: SPR (Biacore T100), Fc-binding protein immobilized on CM5 chip, IgG1 in flow
value.kind: koff
Answer shape: numeric part, then the unit.

Task item: Read the entry FcR36a-containing Fc-binding protein (SEQ ID NO: 11) (receptor) KIEEAMGMRTGDMPKAEVILEPPWNRVLEQDSVTLKCRGAHSPDDDSTQWFHNERLIPSQASSFIIDSASVDDSGEYRCQTSLSTLSDPVQLEVHIGWLLLQAPRWEFVEGEPIHLRCHSWRNTALHKVMFLQNGKVRKYFHHNSDFVIPKATLEDSGSYSCRGLAGRKKVSSGAVDITVTQGGHHHHHH and write its reported koff.
Reply: 0.13 s⁻¹
